For each of the binders below, state its FACS GeoMean-neg.
Biological target: T1, human PRLR on cells (human, UniProt P16471 25-622)
T1 construct: Endogenous on T47D cells, transfected in Baf3-hPRLR cells; also called hPRLR; T47D cells
T1 sequence: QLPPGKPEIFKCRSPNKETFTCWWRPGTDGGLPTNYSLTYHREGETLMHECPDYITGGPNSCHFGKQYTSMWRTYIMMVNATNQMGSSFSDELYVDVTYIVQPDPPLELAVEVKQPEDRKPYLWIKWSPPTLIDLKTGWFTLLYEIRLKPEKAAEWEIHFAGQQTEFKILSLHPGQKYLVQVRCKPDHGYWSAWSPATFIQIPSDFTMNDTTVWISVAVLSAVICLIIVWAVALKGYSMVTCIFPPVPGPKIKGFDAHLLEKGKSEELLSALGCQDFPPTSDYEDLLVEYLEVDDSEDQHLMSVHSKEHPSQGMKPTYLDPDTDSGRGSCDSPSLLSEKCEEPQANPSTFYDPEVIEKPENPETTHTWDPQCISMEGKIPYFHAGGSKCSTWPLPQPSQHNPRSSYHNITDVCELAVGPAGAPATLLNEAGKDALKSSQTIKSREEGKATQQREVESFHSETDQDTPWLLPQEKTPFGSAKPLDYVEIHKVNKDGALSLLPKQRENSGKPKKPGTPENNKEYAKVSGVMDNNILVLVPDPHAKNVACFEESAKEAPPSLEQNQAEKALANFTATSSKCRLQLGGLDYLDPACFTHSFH
Assay: FACS T47D 10 ug/mL
Give the figure only, with no unit attached.

Entry Ab10 (antibody, V domains shown, murine monoclonal, isotype G2a; also called murine Ab10) VH: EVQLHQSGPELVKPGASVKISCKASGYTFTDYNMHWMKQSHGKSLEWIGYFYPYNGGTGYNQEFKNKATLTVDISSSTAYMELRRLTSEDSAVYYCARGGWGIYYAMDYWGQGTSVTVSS VL: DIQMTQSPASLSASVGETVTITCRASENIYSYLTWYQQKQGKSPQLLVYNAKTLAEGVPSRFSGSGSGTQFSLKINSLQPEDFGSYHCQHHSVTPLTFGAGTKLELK has what FACS GeoMean-neg?
2720

Can you look up the measured FACS GeoMean-neg of Ab9 (antibody, V domains shown, murine monoclonal, isotype G2b; also called murine Ab9) VH: EVQLQQSGPELVRPGASVKISCKASGYSFTDYNMHWVKQSHGKSLEWIGYIYPYNGGAGYNQKFKSKATMNVGISSSTAYMELRSLTSEDSAVYYCARGDGNYVGDMDYWGQGTSVTVSS VL: DIQMTQSPASLSASVGETVTITCRASENIYSYLAWYQQKQGKSPQLLVYNAKTLAEGVPSRFSGSGSGTQFSLKINSLQPEDFGSYYCQHHSGTPFTFGSGTKLEIK for me?
1870

I would be grateful if you could share the reported FACS GeoMean-neg for Ab8 (antibody, V domains shown, murine monoclonal, isotype G2b; also called murine Ab8) VH: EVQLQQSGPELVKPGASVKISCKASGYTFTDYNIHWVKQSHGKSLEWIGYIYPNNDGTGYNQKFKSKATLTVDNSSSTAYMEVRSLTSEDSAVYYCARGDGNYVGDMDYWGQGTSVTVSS VL: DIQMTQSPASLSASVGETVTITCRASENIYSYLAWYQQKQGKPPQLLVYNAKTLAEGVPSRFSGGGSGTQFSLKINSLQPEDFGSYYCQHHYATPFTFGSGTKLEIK .
1530

State the recorded FACS GeoMean-neg for this entry: Ab12 (antibody, V domains shown, murine monoclonal, isotype G2a; reported as PRLR agonist; also called murine Ab12) VH: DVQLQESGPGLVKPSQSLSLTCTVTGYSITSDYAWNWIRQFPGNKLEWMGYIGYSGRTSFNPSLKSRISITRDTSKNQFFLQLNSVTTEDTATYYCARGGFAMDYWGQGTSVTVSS VL: QIVLTQSPGIMSASPGEKVTMTCSASSSVTYMYWYQQKPRSSPKPWIYLTSNLASGVPARFSGSGSGTSYSLTISSMEAEDGATYYCQQWSSTPPLTFGGGTKLELN
1680
